FYI, the data here is from patent US20240270762A1.

system-tested: PBP3 from Escherichia coli (K-12) (Escherichia coli, UniProt P0AD68)
Sequence (P0AD68 1-577): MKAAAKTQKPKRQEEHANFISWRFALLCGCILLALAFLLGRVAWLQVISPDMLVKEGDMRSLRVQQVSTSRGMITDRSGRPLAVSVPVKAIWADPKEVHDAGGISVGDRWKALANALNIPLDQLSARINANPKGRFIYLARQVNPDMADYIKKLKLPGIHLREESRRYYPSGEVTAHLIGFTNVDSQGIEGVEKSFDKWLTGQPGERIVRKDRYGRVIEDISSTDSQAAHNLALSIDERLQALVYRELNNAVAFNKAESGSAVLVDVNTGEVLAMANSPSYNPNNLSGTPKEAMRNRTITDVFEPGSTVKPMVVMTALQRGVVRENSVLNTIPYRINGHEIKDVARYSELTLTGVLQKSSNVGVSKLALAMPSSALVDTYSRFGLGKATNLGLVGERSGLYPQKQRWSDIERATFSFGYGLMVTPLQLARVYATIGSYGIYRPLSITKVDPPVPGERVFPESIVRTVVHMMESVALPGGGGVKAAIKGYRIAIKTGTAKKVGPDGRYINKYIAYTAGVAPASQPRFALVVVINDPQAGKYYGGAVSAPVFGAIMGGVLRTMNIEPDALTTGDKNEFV
experiment-summary: Bocillin-FL fluorescence polarization competition binding, E. coli PBP3
Catalogue of EC50 readings, one per entry.

- compound: "O=C(NCCN1CCN(C(=O)NC(C(=O)N[C@H]2Cc3ccc(F)c(C(=O)O)c3OB2O)c2cc(F)c(O)c(O)c2Cl)C1=O)c1cccc(O)c1 (stereo partly drawn)"
  EC50: "10 to 50 µM"
- compound: "O=C(NCCN1CCN(C(=O)N[C@@H](C(=O)N[C@H]2Cc3ccc(F)c(C(=O)O)c3OB2O)c2cc(F)c(O)c(O)c2Cl)C1=O)Nc1ccc(O)cc1"
  EC50: "< 10 µM"
- compound: "CS(=O)(=O)N1CCC[C@H]1C(=O)N[C@@H](C(=O)N[C@H]1Cc2cccc(C(=O)O)c2OB1O)c1ccc(P(=O)(O)O)cc1"
  EC50: "10 to 50 µM"
- compound: "O=C(NCCCN1CCN(C(=O)NC(C(=O)N[C@H]2Cc3ccc(F)c(C(=O)O)c3OB2O)c2cc(F)c(O)c(O)c2Cl)C(=O)C1=O)c1ccncc1 (stereo partly drawn)"
  EC50: "< 10 µM"
- compound: "O=C(CN1CCN(C(=O)NC(C(=O)N[C@H]2Cc3ccc(F)c(C(=O)O)c3OB2O)c2cc(F)c(O)c(O)c2Cl)C(=O)C1=O)Nc1nccs1 (stereo partly drawn)"
  EC50: "< 10 µM"
- compound: "CN(CCN1CCN(C(=O)N[C@@H](C(=O)N[C@H]2Cc3ccc(F)c(C(=O)O)c3OB2O)c2cc(F)c(O)c(O)c2Cl)C(=O)C1=O)Cc1cccnc1"
  EC50: "< 10 µM"

###

pIC50: recorded values
system-tested: PBP3 from Pseudomonas aeruginosa (PAO1) (Pseudomonas aeruginosa, UniProt G3XD46)
Sequence (G3XD46 whole entry): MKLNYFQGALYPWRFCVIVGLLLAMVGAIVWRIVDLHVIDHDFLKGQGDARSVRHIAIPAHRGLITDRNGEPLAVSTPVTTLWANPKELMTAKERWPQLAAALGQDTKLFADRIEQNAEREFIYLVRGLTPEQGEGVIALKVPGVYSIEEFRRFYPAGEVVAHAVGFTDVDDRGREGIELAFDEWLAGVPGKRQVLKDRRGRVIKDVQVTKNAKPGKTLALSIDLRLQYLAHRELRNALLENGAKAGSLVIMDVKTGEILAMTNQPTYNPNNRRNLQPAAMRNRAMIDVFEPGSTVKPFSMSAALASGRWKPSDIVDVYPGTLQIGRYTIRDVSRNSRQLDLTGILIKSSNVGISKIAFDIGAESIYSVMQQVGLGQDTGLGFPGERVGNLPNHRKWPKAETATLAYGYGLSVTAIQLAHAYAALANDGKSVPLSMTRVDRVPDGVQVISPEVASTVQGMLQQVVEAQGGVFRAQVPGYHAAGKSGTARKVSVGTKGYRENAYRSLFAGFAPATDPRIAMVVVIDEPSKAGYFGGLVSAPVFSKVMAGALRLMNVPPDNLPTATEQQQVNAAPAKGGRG
experiment-summary: Bocillin-FL fluorescence polarization competition binding, P. aeruginosa PBP3
run-parameters: Binding affinity to P. aeruginosa PBP3; fluorescence polarization competition binding assay using Bocillin-FL; read-out: P. aeruginosa PBP3 Potency
pIC50: −log10 of the molar value.

- compound: "O=C(O)c1c(F)ccc2c1OB(O)[C@@H](NC(=O)[C@H](NC(=O)N1CCN(C3CCN(C(=O)c4ccc(F)c(O)c4F)CC3)C1=O)c1cc(F)c(O)c(O)c1Cl)C2 (single isomer, unassigned) [Example 437]"
  pIC50: "> 5.00"
- compound: "O=C(O)c1cccc2c1OB(O)[C@@H](NC(=O)[C@H](NC(=O)c1ccn[nH]c1=O)c1ccc(P(=O)(O)O)cc1)C2 (single isomer, unassigned) [Example 178]"
  pIC50: "> 5.00"
- compound: "O=C(NCCCN1CCN(C(=O)N[C@H](C(=O)N[C@H]2Cc3ccc(F)c(C(=O)O)c3OB2O)c2cc(F)c(O)c(O)c2Cl)C(=O)C1=O)c1ccc(O)cc1Cl (single isomer, unassigned) [Example 470]"
  pIC50: "4.30 to 5.00"
- compound: "CCN1CCN(C(=O)N[C@H](C(=O)N[C@H]2Cc3ccc(F)c(C(=O)O)c3OB2O)c2ccc(P(=O)(O)O)cc2)C(=O)C1=O (single isomer, unassigned) [Example 9]"
  pIC50: "4.30 to 5.00"
- compound: "CN1CCCN(C(=O)NC(C(=O)N[C@H]2Cc3cccc(C(=O)O)c3OB2O)c2ccc(P(=O)(O)O)cc2)C1=O (some centres unmarked) [Example 38]"
  pIC50: "> 5.00"
